Tested on: pigweed
procedure-text: Test C pre-/postemergence herbicide test
Assay type: in vivo, Amaranthus retroflexus
cond: Preemergence, 31 g ai/ha; scale 0 to 100, 0 is no effect and 100 is complete control
Exercise: for every item that follows, state its recorded Pigweed plant response rating.
Answer with a number only.

Query: What Pigweed plant response rating appears in the records for this molecule with pigweed? O=C1NCC(c2cccc(OC(F)(F)F)c2)C1C(=O)Nc1ccccc1F (stereo not drawn) [Compound 69]
Result: 15

Query: Fill in the recorded Pigweed plant response rating for this molecule, with pigweed as test system: O=C1NC[C@H](c2cccc(C(F)(F)F)c2)[C@H]1C(=O)Nc1ccccc1F [Compound 204]
Result: 0

Query: Lab request: please report Pigweed plant response rating under test system pigweed for CN1CC(c2ccc(C(F)(F)F)cc2)C(C(=O)Nc2cccc(F)c2F)C1=O (stereo not drawn) [Compound 306]
Result: 80

Query: Any idea what Pigweed plant response rating came out for O=C1NCC(c2ccc(F)c(C(F)(F)F)c2)C1C(=O)Nc1cccc(F)c1F (racemic) [Compound 77] on pigweed?
Result: 0

Query: Fill in the recorded Pigweed plant response rating for this molecule, with pigweed as test system: CN1CC(c2ccc(F)c(F)c2)C(C(=O)Nc2cccc(F)c2F)C1=O (stereo not drawn) [Compound 303]
Result: 35

Query: Recall the recorded Pigweed plant response rating for O=C1NCC(c2ccc(C(F)(F)F)cc2)C1C(=O)Nc1cccc(F)c1F (racemic) [Compound 202] with pigweed and state it.
Result: 85

Query: Field: Pigweed plant response rating (pigweed). Entry: O=C1NCC(c2ccc(C(F)(F)F)cc2)C1C(=O)Nc1ccccc1F (stereo not drawn) [Compound 231]
Result: 35

Query: API: value(readout=Pigweed plant response rating, system=pigweed) for record O=C1NCC(c2ccc(Cl)cc2)C1C(=O)Nc1cccc(F)c1F (stereo not drawn) [Compound 218]
Result: 5

Query: Can you look up Pigweed plant response rating on pigweed for O=C1NCC(c2cccc(OC(F)F)c2)C1C(=O)Nc1cccc(F)c1F (stereo not drawn) [Compound 224] ?
Result: 0

====

System: ryegrass, Italian
procedure-text: Test A pre-/postemergence herbicide test
Format: in vivo, Lolium multiflorum
cond: Postemergence, 500 g ai/ha; 0 to 100 scale (0 no effect, 100 complete control)
I'd appreciate it if you could supply Plant response rating, Ryegrass, Italian values for the items below.
Keep it simple and answer with nothing but the number.

Query: Dear colleague, I am looking for the recorded Plant response rating, Ryegrass, Italian of the following compound: CSc1cccc(C2CNC(=O)C2C(=O)Nc2ccc(F)c(F)c2F)c1 (stereo not shown)
Result: 0

Query: Using the record for CSc1cccc(C2CNC(=O)C2C(=O)Nc2cccc(F)c2F)c1 (stereo not shown) , report its Plant response rating, Ryegrass, Italian.
Result: 0

Query: Item O=C1NCC(c2cccc(OC(F)F)c2)C1C(=O)Nc1ccccc1F (stereo not shown) has what recorded Plant response rating, Ryegrass, Italian?
Result: 30

Query: Report Plant response rating, Ryegrass, Italian for O=C1NCC(c2ccc(Cl)c(Cl)c2)C1C(=O)Nc1ccc(F)c(F)c1F (stereo not shown) please.
Result: 20

====

System: crabgrass, large
procedure-text: Test C pre-/postemergence herbicide test
Format: in vivo, Digitaria sanguinalis
cond: Preemergence, 62 g ai/ha; scale 0 to 100
measurement-name: Plant response rating, Crabgrass, Large
The response must contain the number and no unit.

Query: # query: Plant response rating, Crabgrass, Large of entry O=C1NCC(c2cccc(OC(F)(F)F)c2)C1C(=O)Nc1ccccc1F (centres unmarked)
Result: 90

Query: Record request: Plant response rating, Crabgrass, Large value, item O=C1NCC(c2ccc(Cl)c(Cl)c2)C1C(=O)Nc1ccccc1F (racemic)
Result: 98

Query: Which Plant response rating, Crabgrass, Large is listed for Cc1ccccc1NC(=O)C1C(=O)NCC1c1cccc(C(F)(F)F)c1 (racemic) ?
Result: 100

Query: Would you mind telling me what Plant response rating, Crabgrass, Large value was observed for O=C1NCC(c2cc(F)c(F)c(F)c2)C1C(=O)Nc1cccc(F)c1F (centres unmarked) ?
Result: 90

Query: Using the record for O=C1NCC(c2ccc(F)c(F)c2)C1C(=O)Nc1cccc(F)c1F (centres unmarked) , report its Plant response rating, Crabgrass, Large.
Result: 98

Query: GET /values?readout=Plant response rating, Crabgrass, Large&item= O=C1NCC(c2ccc(C(F)(F)F)cc2)C1C(=O)Nc1cccc(F)c1F (centres unmarked)
Result: 98

Query: // Plant response rating, Crabgrass, Large lookup, key: O=C1NCC(c2ccc(F)c(Cl)c2)C1C(=O)Nc1ccccc1F (centres unmarked)
Result: 95

Query: Which Plant response rating, Crabgrass, Large reading was recorded for the compound O=C1NCC(c2ccc(F)cc2)C1C(=O)Nc1ccc(F)c(F)c1F (racemic) ?
Result: 100

====

Tested on: barnyardgrass
procedure-text: Test C pre-/postemergence herbicide test
Format: in vivo, Echinochloa crus-galli
cond: Postemergence; 125 g ai/ha; scale 0 to 100 (0 no effect, 100 complete control)
Would you mind telling me the reported Plant response rating, Barnyardgrass of each entry?

Query: Recorded Plant response rating, Barnyardgrass for O=C1NCC(c2ccc(F)c(F)c2)C1C(=O)Nc1cccc(F)c1F (racemic) with barnyardgrass, please?
Result: 65

Query: Item: O=C1NCC(c2ccc(F)cc2)C1C(=O)Nc1ccc(F)c(F)c1F (racemic) Test system: barnyardgrass Read-out: Plant response rating, Barnyardgrass Value: ?
Result: 40

Query: // lookup Plant response rating, Barnyardgrass | system=barnyardgrass | key= Cc1c(F)cccc1NC(=O)C1C(=O)NCC1c1ccc(F)c(F)c1 (racemic)
Result: 0

Query: Item O=C1NCC(c2ccc(C(F)(F)F)cc2)C1C(=O)Nc1ccccc1F (stereo not drawn) with barnyardgrass - Plant response rating, Barnyardgrass?
Result: 35

Query: Form field - read-out: Plant response rating, Barnyardgrass; system: barnyardgrass; submitted item: O=C1NCC(c2cccc(Br)c2)C1C(=O)Nc1ccc(F)c(F)c1F (stereo not drawn)
Result: 50

Query: What is its Plant response rating, Barnyardgrass for barnyardgrass? Entry: O=C1NCC(c2ccc(C(F)(F)F)cc2)C1C(=O)Nc1cccc(F)c1F (stereo not drawn)
Result: 35

====

Please respond with reported Plant response rating, Kochia for every item in the list.
Test system: kochia
procedure-text: Test A pre-/postemergence herbicide test
Format: in vivo, Kochia scoparia
cond: Preemergence, 125 g ai/ha; 0 to 100 scale where 0 is no effect and 100 is complete control
From the text: […]

Query: Please report the recorded Plant response rating, Kochia for O=C1NCC(c2cccc(OC(F)F)c2)C1C(=O)Nc1ccccc1F (centres unmarked) [Compound 323] .
Result: 50

Query: Can you share its Plant response rating, Kochia? I mean this molecule: CCN1CC(c2ccc(C(F)(F)F)cc2)C(C(=O)Nc2cccc(F)c2F)C1=O (centres unmarked) [Compound 336]
Result: 0

Query: Query (molecule): CC(C)c1cccc(C2CNC(=O)C2C(=O)Nc2ccccc2F)c1 (centres unmarked) [Compound 318] ; field requested: Plant response rating, Kochia
Result: 20

Query: Please look up its Plant response rating, Kochia: O=C1NCC(c2cccc(Br)c2)C1C(=O)Nc1ccccc1Cl (centres unmarked) [Compound 311]
Result: 0

Query: Can you share its Plant response rating, Kochia? I mean this molecule: CC(C)N1CC(c2ccc(F)cc2)C(C(=O)Nc2cccc(F)c2F)C1=O (centres unmarked) [Compound 276]
Result: 0

Query: Entry O=C1NCC(c2cnn(CC(F)(F)F)c2)C1C(=O)Nc1ccccc1F (centres unmarked) [Compound 298] : reported Plant response rating, Kochia = ?
Result: 0

Query: Give its Plant response rating, Kochia value. Item: O=C1NCC(c2ccc(SC(F)(F)F)cc2)C1C(=O)Nc1ccc(F)c(F)c1F (centres unmarked) [Compound 322]
Result: 0

Query: For the molecule O=C1NCC(c2cccc(-n3cccn3)c2)C1C(=O)Nc1ccccc1C(F)(F)F (centres unmarked) [Compound 338] , what Plant response rating, Kochia is on record?
Result: 0

Query: Using the record for O=C1NCC(c2cccc(-n3ccc(C(F)(F)F)n3)c2)C1C(=O)Nc1cccc(F)c1F (centres unmarked) [Compound 326] , report its Plant response rating, Kochia.
Result: 40

Query: Need Plant response rating, Kochia of CN1CC(c2ccc(F)cc2)C(C(=O)Nc2ccccc2F)C1=O (centres unmarked) [Compound 270] , thanks.
Result: 0

Query: Query (molecule): O=C1NCC(c2ccc(Cl)s2)C1C(=O)Nc1ccccc1F (centres unmarked) [Compound 292] ; field requested: Plant response rating, Kochia
Result: 30

====

System: field poppy
procedure-text: Test D pre-/postemergence herbicide test
Assay type: in vivo, Papaver rhoeas
cond: Preemergence; 31 g ai/ha; scale 0 to 100 (0 no effect, 100 complete control)
Text: […]
Give Plant response rating, Field Poppy for every item shown.
Response field accepts a number only; no unit should be typed.

Query: Would you kindly share the measured Plant response rating, Field Poppy for "O=C1NC[C@H](c2cccc(C(F)(F)F)c2)[C@H]1C(=O)Nc1ccccc1F" ?
Result: 75

Query: Data request, read-out Plant response rating, Field Poppy, for O=C1NCC(c2cc(F)c(F)cc2F)C1C(=O)Nc1cccc(F)c1F (centres unmarked)
Result: 50

Query: Param item = O=C1NCC(c2ccc(C(F)(F)F)cc2)C1C(=O)Nc1ccccc1F (centres unmarked) ; retrieve measured Plant response rating, Field Poppy.
Result: 80

Query: Using the record for O=C1NCC(c2ccc(Cl)c(F)c2)C1C(=O)Nc1cccc(F)c1F (centres unmarked) , report its Plant response rating, Field Poppy.
Result: 50

Query: What Plant response rating, Field Poppy value was documented for this compound, "O=C1NC[C@H](c2cccc(C(F)(F)F)c2)[C@H]1C(=O)Nc1cccc(F)c1F" ?
Result: 80
